Test system: human gastric cancer cell strain MGC-803
test.description: MTT growth inhibition on MGC-803
condition.context: Homo sapiens, MGC-803, read-out: IC50 MGC-803
Each entry below carries its recorded pIC50.
In simple prose, pIC50 is minus the logarithm base ten of a concentration in moles per litre.

Before answering, review these 3 worked examples.
Request body: readout pIC50, system human gastric cancer cell strain MGC-803, query COc1cc(NC(=O)Nc2ccc(C)cc2)c2c(c1OC(=O)Nc1ccc(C)cc1)-c1c(OC)c(OC)cc3c1C(C2)N(C)CC3 (centres unmarked) . Return the value.
4.59

Request body: readout pIC50, system human gastric cancer cell strain MGC-803, query COc1cc(NC(=O)Nc2ccccc2C)c2c(c1OC(=O)Nc1ccccc1C)-c1c(OC)c(OC)cc3c1C(C2)N(C)CC3 (centres unmarked) . Return the value.
4.64

Request body: readout pIC50, system human gastric cancer cell strain MGC-803, query COc1cc(NC(=O)Nc2ccc(Cl)c(Cl)c2)c2c(c1O)-c1c(OC)c(OC)cc3c1C(C2)N(C)CC3 (centres unmarked) . Return the value.
4.52

Next:
Request body: readout pIC50, system human gastric cancer cell strain MGC-803, query COc1cc(NC(=O)Nc2ccccc2Cl)c2c(c1OC(=O)Nc1ccccc1Cl)-c1c(OC)c(OC)cc3c1C(C2)N(C)CC3 (centres unmarked) . Return the value.
4.57

Request body: readout pIC50, system human gastric cancer cell strain MGC-803, query COc1cc(NC(=O)Nc2ccc(F)cc2)c2c(c1OC(=O)Nc1ccc(F)cc1)-c1c(OC)c(OC)cc3c1C(C2)N(C)CC3 (centres unmarked) . Return the value.
4.60

* * *

System: human gastric cancer cell strain MGC-803
test.description: MTT growth inhibition on MGC-803
condition.context: read-out: IC50 MGC-803; Table 2, MTT
Each entry below carries its recorded IC50.
Note to self: number, then unit, no commentary.

// lookup IC50 for COC1=CC(=O)c2cc3c4c(cc(OC)c(OC)c4c2C1=O)CCN3C [TICD, isocorydione, reference compound]
49.6 µM

// below: IC50 requested for another molecule
// lookup IC50 for COc1cc(N)c2c(c1O)-c1c(OC)c(OC)cc3c1[C@H](C2)N(C)CC3 [NICD, 8-amino-isocorydine, reference compound]
62.1 µM

* * *

Test system: human gastric cancer cell strain MGC-803
test.description: MTT growth inhibition on MGC-803;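 further: adherent cells exposed to compound over a concentration gradient for 24, 48 and 72 h, MTT absorbance at 490 nm, inhibition relative to untreated control wells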
condition.context: Homo sapiens, MGC-803, read-out: IC50 MGC-803
Each entry below carries its recorded IC50.
# number only, unit µM dropped from output

Request body: readout IC50, system human gastric cancer cell strain MGC-803, query COc1cc(NC(=O)Nc2ccccc2)c2c(c1O)-c1c(OC)c(OC)cc3c1C(C2)N(C)CC3 (stereo not drawn) [Compound 15, 8-N-(phenyl)-ureido-isocorydine] . Return the value.
56.6

Next:
Request body: readout IC50, system human gastric cancer cell strain MGC-803, query COc1cc(NC(=O)Nc2ccc(C(F)(F)F)cc2)c2c(c1OC(=O)Nc1ccc(C(F)(F)F)cc1)-c1c(OC)c(OC)cc3c1C(C2)N(C)CC3 (stereo not drawn) [Compound 9] . Return the value.
39.3

Request body: readout IC50, system human gastric cancer cell strain MGC-803, query COc1ccc2c(c1O)-c1c(OC)c(OC)cc3c1[C@H](C2)N(C)CC3 [ICD, isocorydine] . Return the value.
388

* * *

Each entry below carries its recorded pIC50.
Test system: human liver cancer cell strain HepG2
test.description: MTT growth inhibition on HepG2
Type: cell-based
condition.context: Homo sapiens, HepG2, read-out: IC50 HepG2
In simple prose, pIC50 is minus the logarithm base ten of a concentration in moles per litre.

Request body: readout pIC50, system human liver cancer cell strain HepG2, query COc1cc(NC(=O)Nc2ccccc2Cl)c2c(c1OC(=O)Nc1ccccc1Cl)-c1c(OC)c(OC)cc3c1C(C2)N(C)CC3 (centres unmarked) [Compound 6] . Return the value.
4.76

Request body: readout pIC50, system human liver cancer cell strain HepG2, query COc1cc(NC(=O)Nc2ccccc2C)c2c(c1OC(=O)Nc1ccccc1C)-c1c(OC)c(OC)cc3c1C(C2)N(C)CC3 (centres unmarked) [Compound 7] . Return the value.
4.50

Request body: readout pIC50, system human liver cancer cell strain HepG2, query COc1cc(NC(=O)Nc2ccc(C(F)(F)F)cc2)c2c(c1OC(=O)Nc1ccc(C(F)(F)F)cc1)-c1c(OC)c(OC)cc3c1C(C2)N(C)CC3 (centres unmarked) [Compound 9] . Return the value.
4.36

Request body: readout pIC50, system human liver cancer cell strain HepG2, query COc1cc(NC(=O)Nc2ccc(F)cc2)c2c(c1OC(=O)Nc1ccc(F)cc1)-c1c(OC)c(OC)cc3c1C(C2)N(C)CC3 (centres unmarked) [Compound 10] . Return the value.
4.57

Request body: readout pIC50, system human liver cancer cell strain HepG2, query COc1cc(NC(=O)Nc2ccc(C)cc2)c2c(c1OC(=O)Nc1ccc(C)cc1)-c1c(OC)c(OC)cc3c1C(C2)N(C)CC3 (centres unmarked) [Compound 3] . Return the value.
4.79

* * *

System: human liver cancer cell strain HepG2
test.description: MTT growth inhibition on HepG2
Type: cell-based
condition.context: Homo sapiens, HepG2, Table 2, MTT; read-out: IC50 HepG2
observation.type: IC50 (µM)
# number only, unit µM dropped from output

Before answering, review these 2 worked examples.
// lookup IC50 for COc1cc(NC(=O)Nc2ccc(Cl)c(C(F)(F)F)c2)c2c(c1O)-c1c(OC)c(OC)cc3c1C(C2)N(C)CC3 (stereo not drawn)
17.2

// lookup IC50 for COc1ccc2c(c1O)-c1c(OC)c(OC)cc3c1[C@H](C2)N(C)CC3
569

// below: IC50 requested for another molecule
// lookup IC50 for COc1cc(NC(=O)Nc2ccc(N3CCC(CN)CC3)c(C(F)(F)F)c2)c2c(c1O)-c1c(OC)c(OC)cc3c1[C@H](C2)N(C)CC3
7.51
